- Test system: SF-539 CNS
- experiment: NCI tumour cell line growth inhibition, 48 h; in the data active = GI50 below about 0.43 µM; inactive = the rest
Returns: one label drawn from active, inactive

{"compound": "COc1cc(C[C@H]2c3cc(OC)c(OC)cc3CCN2C)c(Oc2cc3c(cc2OC)-c2c(OC)c(OC)cc4c2[C@H](C3)N(C)CC4)cc1OC", "class": "inactive"}

Hi, sorry to bother you, what did the test record for c1ccc2[nH]c(-c3ccc(-c4nccc5c4[nH]c4ccccc45)cc3)nc2c1 ?
inactive

Hi, sorry to bother you, what did the test record for Cc1cc(O)c(C(C)C)cc1S(=O)(=O)O (tested in a mixture with another compound) ?
active

Hi, sorry to bother you, what did the test record for C=C(C)C(=O)Nc1ccc(NC(C)C)cc1 ?
inactive

----------
- Test system: HL-60(TB) leukemia
- experiment: NCI tumour cell line growth inhibition, 48 h
Lab note: compare TGI against 10 µM. Equal or greater, write label 1. Smaller, write label 0.

In plain terms: is recorded TGI at least 10 µM for CC(=O)CC(=O)OC1CC(C)CCC1C(C)C (centres undefined) ?
label 1

In plain terms: is recorded TGI at least 10 µM for C=C1C(=O)O[C@H]2[C@H]1CC/C(COC(=O)NCc1ccc(Cn3c(=O)sn(CCCl)c3=O)cc1)=C\CC[C@@]1(C)O[C@@H]21 ?
label 0

In plain terms: is recorded TGI at least 10 µM for COc1ccc2c3c1O[C@]1(C)C34CCN(C)C(C2)C42C=C[C@@]1(OC)c1c(O)ccc(O)c12 ?
label 1

In plain terms: is recorded TGI at least 10 µM for C=C(C)C(=O)O[C@H]1CC(=C)[C@@H]2C[C@H](O)[C@](O)(CCl)[C@@H]2[C@H]2OC(=O)C(=C)[C@@H]21 ?
label 0

In plain terms: is recorded TGI at least 10 µM for CCOP(=O)(OCC)/C(C#N)=C/c1ncc[nH]1 ?
label 1

----------
- System: KM12 colon
- experiment: NCI tumour cell line growth inhibition, 48 h
Each item that follows carries a reported log10(TGI).
// stored as log10 of TGI expressed in µM

Past entries and their recorded results:
{"compound": "COc1cnc2c(c1)C(=O)c1c-2n(CCCn2ccnc2)c(=O)c2cc(F)ccc12", "log10(TGI)": 0.20}
{"compound": "O=[N+]([O-])c1cc(C(F)(F)F)cc([N+](=O)[O-])c1CCl", "log10(TGI)": 0.69}

Entry Cc1cccc(C)c1NC(=O)C(C#N)C1=C(Cl)C(=O)c2ccccc2C1=O (centres undefined) : reported log10(TGI) = ?
1.54

Entry CCN(CC)c1c(C(=O)/C=C/c2ccc(OC)cc2)c(-c2ccccc2)nn(C)c1=O : reported log10(TGI) = ?
1.57

Entry CC(C)(C)c1ccc(Oc2nccc(-c3c(-c4ccc(F)cc4)ncn3C3CCNCC3)n2)cc1 : reported log10(TGI) = ?
0.88

Entry Cc1c(C(N)=O)sc2c1C(=O)N(Cc1ccccc1)C1=NN=C(c3ccc(Cl)cc3)CN12 : reported log10(TGI) = ?
1.22

Entry CCCCCCCCCCCCCCCCCCNc1ccn(C2OC(COP(=O)(O)OCC3OC(n4cc(F)c(=O)[nH]c4=O)CC3O)C(O)C2O)c(=O)n1 (centres undefined) : reported log10(TGI) = ?
1.62

----------
- Tested on: SK-MEL-5 melanoma
- experiment: NCI tumour cell line growth inhibition, 48 h; in the data active = GI50 below about 0.43 µM; inactive = the rest
Returns: one label drawn from 1 = active, -1 = inactive

Sample answers from the record:
{"compound": "COc1ccc(C(=O)c2cc(OC)c(OC)c(OC)c2)cc1OC(=O)CCl", "class": 1}
{"compound": "C[C@H]1[C@H](C)CC[C@]2(CO)CC[C@]3(C)C(=CC[C@@H]4[C@@]5(C)CCCNC(C)(C)[C@@H]5CC[C@]43C)[C@H]12", "class": -1}
{"compound": "COc1cc(NC(C)CCCNC2CN3CCC2CC3)c2ncccc2c1 (stereo not given)", "class": -1}
{"compound": "C(#Cc1ccccc1C#Cc1cccs1)c1cccs1", "class": -1}

Let's switch to this compound now.
Hi, sorry to bother you, what did the test record for COc1cc(C[C@H]2c3cc(OC)c(OC)cc3CCN2C)c(Oc2cc3c(cc2OC)-c2c(OC)c(OC)cc4c2[C@H](C3)N(C)CC4)cc1OC ?
-1
